# Experiment: 39-week oral (gavage) toxicity/toxicokinetic study with 13-week treatment-free recovery period in cynomolgus monkeys
# Assay type: in vivo, cynomolgus monkeys (Macaca fascicularis)
# Condition summary: male, cynomolgus monkey, plasma, po, 20 mg/kg/day, Day 273 (Week 39); 20 mg/kg/d; males; mean (SD)
Result type: t max
Write your answer as a measured quantity: the number, then the unit.

Enquiry: Given the compound CCOC(=O)N1c2ccc(C(F)(F)F)cc2C(N(Cc2cc(C(F)(F)F)cc(C(F)(F)F)c2)c2ncc(OCCCC(=O)O)cn2)CC1CC (stereo not shown) , what is its reported t max?
Return: 2.3 h

====

# Experiment: 39-week oral (gavage) toxicity/toxicokinetic study with 13-week treatment-free recovery period in cynomolgus monkeys
# Format: in vivo, cynomolgus monkeys (Macaca fascicularis)
# Condition summary: male, cynomolgus monkey, plasma, po, 20 mg/kg/day; Day 1; 20 mg/kg/d; males; mean; read-out: AUC(0–24) (converted)
Result type: AUC(0-t) (ng·h/mL)
Please respond with the number in ng·h/mL and leave the unit unwritten.

Enquiry: Given the compound CCOC(=O)N1c2ccc(C(F)(F)F)cc2C(N(Cc2cc(C(F)(F)F)cc(C(F)(F)F)c2)c2ncc(OCCCC(=O)O)cn2)CC1CC (stereo not shown) [Obicetrapib] , what is its reported AUC(0-t)?
Return: 46600

The values you see were collected from paper PMC11489133.
